src = the supplement of paper PMC9135407

# Tested on: primary human hepatic stellate cells (donor 1)
# assay.name: scaled lipid accumulation score (0 = DMSO-like, 1 = nortriptyline-like); higher = stronger HSC inactivation (lipid re-accumulation), active = hit call of the paper
# conditions: library stock concentration: 10 mM; 48 h
In all, about 5,800 compounds went through this assay and about 620 (11%) showed activity.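 Rule for the calls: active = score above a cut-off or among the top three wells of a plate; in these data no inactive exceeds 0.85.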 The sample holds actives, similar compounds and a random draw of the others, so the mix is not that of the screen.
Hi! Could you answer with just one of these? Yes (active), No (inactive)

Some solved cases for reference:
# molecule, class
rows = [
    ("Cc1cc(N2CCOCC2)ccc1Nc1nc(NC2CCCCC2)c2[nH]cnc2n1", "No"),
    ("CC(=O)NCCCCCC(=O)O", "No"),
    ("Cc1cc(-c2ccc(/N=N/c3ccc4c(S(=O)(=O)O)cc(S(=O)(=O)O)c(N)c4c3O)c(C)c2)ccc1/N=N/c1ccc2c(S(=O)(=O)O)cc(S(=O)(=O)O)c(N)c2c1O", "No"),
    ("c1cn2cc(-c3ccc4cn[nH]c4c3)nc(Nc3ccc(N4CCOCC4)cc3)c2n1", "Yes"),
    ("Cn1c(N2CCCCS2(=O)=O)nc(C(=O)NCc2ccc(F)cc2)c(O)c1=O", "No"),
]

### Prompt // return assay outcome for COc1cc(O)c2c(c1)/C=C/C[C@H](O)[C@H](O)C(=O)/C=C\C[C@H](C)OC2=O
### Response No

### Prompt // param item: CC(=O)N[C@H]1[C@H]([C@H](O)[C@H](O)CO)OC(C(=O)O)=C[C@@H]1NC(=N)N ; yields the recorded call
### Response No

### Prompt Status in this test for CC1(C)CCCC2(C)C1CCC1(C)OC(=O)CC12 (stereo not drawn) [Sclareolide] ?
### Response No
